Hey, just so you know, these numbers are from patent US20250361230A1.

Assignment: determine reported pIC50 for the given compounds.
target: AKT (Homo sapiens, UniProt P31749); experiment: RBC HotSpot kinase assay (33P-ATP, P81 filter-binding), AKT; assay type: biochemical; settings: Table 32, biochemical kinase assay; read-out: AKT IC50
Sequence (P31749 whole entry): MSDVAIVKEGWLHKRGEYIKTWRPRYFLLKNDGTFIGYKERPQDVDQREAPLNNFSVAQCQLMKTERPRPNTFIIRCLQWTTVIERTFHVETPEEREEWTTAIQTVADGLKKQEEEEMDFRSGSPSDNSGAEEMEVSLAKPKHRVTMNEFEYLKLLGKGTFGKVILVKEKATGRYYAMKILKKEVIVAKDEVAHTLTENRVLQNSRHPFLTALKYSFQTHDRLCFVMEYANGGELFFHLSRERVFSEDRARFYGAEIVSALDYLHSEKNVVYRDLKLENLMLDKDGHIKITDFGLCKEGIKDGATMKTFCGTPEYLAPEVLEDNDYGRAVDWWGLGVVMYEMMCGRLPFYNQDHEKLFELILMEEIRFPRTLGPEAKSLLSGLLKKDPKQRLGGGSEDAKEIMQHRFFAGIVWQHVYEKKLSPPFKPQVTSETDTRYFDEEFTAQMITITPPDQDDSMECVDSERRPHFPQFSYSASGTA
Note on units: pIC50 is unitless, being -log10 of a concentration expressed in mol/L.

Prompt line: Need pIC50 of NCC(O)(c1ccc(Cl)cc1)c1ccc(-c2ccnc3[nH]cc(Cl)c23)cc1 (stereo not drawn) [Compound 1003] , thanks.
Response line: 8.49

Prompt line: GET /values?readout=pIC50&item= O=C(CO)NCC(O)(c1ccc(Cl)cc1)c1ccc(-c2ccnc3[nH]ccc23)cc1 (stereo not drawn) [Compound 1015]
Response line: 8.23

Prompt line: For NCC(O)(c1ccc(Cl)cc1)c1ccc(-c2ccnc3[nH]cc(Br)c23)nc1 (stereo not drawn) [Compound 1011] , what is its reported pIC50?
Response line: 9.00

Prompt line: I would be grateful if you could share the reported pIC50 for CN(C)CC(=O)NCC(O)(c1ccc(Cl)cc1)c1ccc(-c2ccnc3[nH]ccc23)cc1 (stereo not drawn) [Compound 1019] .
Response line: 8.27

Prompt line: GET /values?readout=pIC50&item= O=C(CO)NCC(O)(c1ccc(Cl)cc1)c1ccc(-c2ccnc3[nH]cc(Cl)c23)cc1 (stereo not drawn) [Compound 1017]
Response line: 8.55

Prompt line: For the compound shown here, O=C(NCC(O)(c1ccc(Cl)cc1)c1ccc(-c2ccnc3[nH]ccc23)cc1)[C@H]1CCCN1 (stereo partly drawn) [Compound 1024] , give the reported pIC50.
Response line: 8.25

Prompt line: Fill in the blank: the reported pIC50 of NCC(=O)NCC(=O)NCC(O)(c1ccc(Cl)cc1)c1ccc(-c2ccnc3[nH]ccc23)cc1 (stereo not drawn) [Compound 1025] is ____.
Response line: 8.51

Prompt line: Look up pIC50: NCC(O)(c1ccc(Cl)cc1)c1ccc(-c2ccnc3[nH]cc(Br)c23)cc1 (stereo not drawn) [Compound 1005]
Response line: 8.77

Prompt line: Find the recorded pIC50 belonging to NCC(O)(c1ccc(Cl)cc1)c1ccc(-c2ccnc3[nH]cc(F)c23)cc1 (stereo not drawn) [Compound 1002] and report it.
Response line: 8.34

Prompt line: What does the data say about its pIC50? Entry: CN(CC(O)(c1ccc(Cl)cc1)c1ccc(-c2ccnc3[nH]ccc23)cc1)C(=O)CN (stereo not drawn) [Compound 1030]
Response line: 8.96

Prompt line: Name the recorded pIC50 for NCC(O)(c1ccc(Cl)cc1)c1ccc(-c2ccnc3[nH]cc(-c4cccnc4)c23)cc1 (stereo not drawn) [Compound 1007] .
Response line: 7.45

Prompt line: Request the reported pIC50 associated with COC(=O)c1c[nH]c2nccc(-c3ccc(C(O)(CN)c4ccc(Cl)cc4)cc3)c12 (stereo not drawn) [Compound 1004]
Response line: 7.74

Prompt line: Given CC(C)(N)C(=O)NCC(O)(c1ccc(Cl)cc1)c1ccc(-c2ccnc3[nH]ccc23)cc1 (stereo not drawn) [Compound 1028] , state its recorded pIC50.
Response line: 8.72

Prompt line: Which pIC50 is reported for this compound? C[C@H](N)C(=O)NCC(O)(c1ccc(Cl)cc1)c1ccc(-c2ccnc3[nH]ccc23)cc1 (stereo partly drawn) [Compound 1026]
Response line: 8.92

Prompt line: What does the record list as pIC50 for NCC(O)(c1ccc(Cl)cc1)c1ccc(-c2ccnc3[nH]ccc23)cc1 (stereo not drawn) [Compound 1001] ?
Response line: 9.22

Prompt line: Any idea what pIC50 was measured for NCC(=O)NCC(O)(c1ccc(Cl)cc1)c1ccc(-c2ccnc3[nH]ccc23)cc1 (stereo not drawn) [Compound 1020] ?
Response line: 8.85
